- Assay Explanation: Oral bioavailability in Sprague-Dawley rat at 5 mg/kg
- Assay type: ADME, organism-based
- Measurement Conditions: in vivo
Reported Property: bioavailability (%)
Number in %, nothing else.

Q) Consider the compound CC(=O)Nc1nc2c(Oc3cc(-c4ccc(C(F)(F)F)cc4)nc(NC(C)c4ccccn4)n3)cccc2s1 (stereo unspecified) . State its measured bioavailability.
A) 24

----------
- Assay Explanation: Aqueous solubility in PBS at pH 7
- Type: physicochemical
Decision: solubility >= 7 µg/mL yields met, all other cases yield not met.

Would you please look over these solved cases?
Compound | Discrete Label
CC(=O)Nc1nc2c(Oc3cc(-c4ccc(C(F)(F)F)cc4)nc(NCC4CCN(CC(C)C)CC4)n3)cccc2s1 | met
CC(=O)Nc1nc2c(Oc3cc(-c4ccc(C(F)(F)F)cc4)nc(N4CCC(O)CC4)n3)cccc2s1 | not met
CC(=O)Nc1nc2c(Oc3cc(-c4ccc(C(F)(F)F)cc4)nc(N4CCOCC4)n3)cccc2s1 | not met
CC(=O)Nc1nc2c(Oc3cc(-c4ccc(C(F)(F)F)cc4)nc(N4CCC(C(=O)O)CC4)n3)cccc2s1 | not met
CC(=O)Nc1nc2c(Oc3cc(-c4ccc(C(F)(F)F)cc4)nc(N4CCCCC4)n3)cccc2s1 | not met
CC(=O)Nc1nc2c(Oc3cc(-c4ccc(C(F)(F)F)cc4)nc(N)n3)cccc2s1 | met

Q) Reported solubility reaches at least 7 µg/mL for CC(=O)Nc1nc2c(Oc3cc(-c4ccc(C(F)(F)F)cc4)nc(NC(C)c4ccccn4)n3)cccc2s1 (centres undefined) ?
A) not met

Q) Reported solubility reaches at least 7 µg/mL for CC(=O)Nc1nc2c(Oc3cc(-c4ccc(C(F)(F)F)cc4)nc(NCC4CCCCN4CC(C)C)n3)cccc2s1 (centres undefined) ?
A) met

Q) Reported solubility reaches at least 7 µg/mL for `CC(=O)Nc1nc2c(Oc3cc(-c4ccc(C(F)(F)F)cc4)ncn3)cccc2s1` ?
A) not met

----------
- Assay Explanation: Aqueous solubility in 0.01N HCl
- Type: physicochemical
We begin with a simple list: items and their reported solubility.

Compound | Reported Property | Result
CC(=O)Nc1nc2c(Oc3cc(-c4ccc(C(F)(F)F)cc4)nc(NC(C)c4ccccn4)n3)cccc2s1 (centres undefined) | solubility | ≥ 200 µg/mL
CC(=O)Nc1nc2c(Oc3cc(-c4ccc(C(F)(F)F)cc4)ncn3)cccc2s1 | solubility | < 1 µg/mL
CC(=O)Nc1nc2c(Oc3cc(-c4ccc(C(F)(F)F)cc4)nc(N)n3)cccc2s1 | solubility | 4.7 µg/mL

Now consider a different compound.
Q) Consider the compound `CC(=O)Nc1nc2c(Oc3cc(-c4ccc(C(F)(F)F)cc4)nc(N4CCC(C(=O)O)CC4)n3)cccc2s1` . State its measured solubility.
A) ≤ 1 µg/mL

----------
- Assay Explanation: Aqueous solubility in fasted-state stimulated intestinal fluid at pH 6.8
- Type: physicochemical
- Measurement Conditions: fasted-state simulated intestinal fluid
We begin with a simple list: items and their reported solubility.
Note to self: number, then unit, no commentary.

Study these solved cases before continuing.
Molecule | solubility
CC(=O)Nc1nc2c(Oc3cc(-c4ccc(C(F)(F)F)cc4)nc(N4CCC(O)CC4)n3)cccc2s1 | 12 µg/mL
CC(=O)Nc1nc2c(Oc3cc(-c4ccc(C(F)(F)F)cc4)nc(N4CCC(C(=O)O)CC4)n3)cccc2s1 | 3.4 µg/mL
CC(=O)Nc1nc2c(Oc3cc(-c4ccc(C(F)(F)F)cc4)nc(N)n3)cccc2s1 | 3.5 µg/mL

Now consider a different molecule.
Q) Consider the molecule CC(=O)Nc1nc2c(Oc3cc(-c4ccc(C(F)(F)F)cc4)nc(NCC4CCCCN4CC(C)C)n3)cccc2s1 (centres undefined) . State its measured solubility.
A) 190 µg/mL
